Test system: BT-549 breast
Assay: NCI-60 one-dose screen, 48 h (100 = growth as untreated, 0 = no growth, -100 = all killed)
Conditions: 10 µM unless noted
The panel holds about 83,000 compounds, 20% with a hit somewhere; the sample as a whole holds those more often. The source made the active and inactive calls. How the source made its calls: active means growth percent below 10; inactive means the rest.
Examples of compounds with documented growth follow.

// growth value for "CN(C)c1nc(NCCNS(=O)(=O)c2ccc(C(=O)/C=C/c3ccc(Cl)cc3)cc2)nc(Nc2ccc(F)cc2)n1" : -66.9% (active)

# growth of "CCOc1ccc(C(=O)NC(=S)Nc2ccc(S(N)(=O)=O)cc2)cc1" = 99.1% [100 µM] (inactive)

----------
System: TK-10 renal
Assay: NCI-60 one-dose screen, 48 h (100 = growth as untreated, 0 = no growth, -100 = all killed)
Conditions: 10 µM unless noted
The panel holds about 83,000 compounds, 20% with a hit somewhere; the sample as a whole holds those more often.
QUANTITY: growth (%)
I only need the number, in %, no unit after it.

Some solved cases for reference:
* COc1ccc(C(=O)/C=C/c2ccc(OC)c(OCc3ccccc3)c2)cc1OC | 20.5
* Cn1cc(-c2cc3nc(-c4cn(C)c5ncccc45)cc(N)n3n2)c2cc(Cl)ccc21 | -83.2
* COc1cc(NC(=O)c2cccc(C3CCc4c(cc(OC)c(OC)c4OC)O3)c2)cc(OC)c1OC (stereo unspecified) | 56.6

Reported growth of C=C1CC[C@@H]2[C@]3(C)COC(c4ccccc4)O[C@@H]3CC[C@@]2(C)[C@@H]1C/C=C1/C(=O)OCC1OC(C)=O (stereo partly specified) : -21.2

The recorded growth for "COc1cc2oc(-c3cccc(C(=O)Nc4ccc(Cl)cc4)c3)cc(=O)c2c(OCCNC(=O)[C@H](CO)NC(=O)OC(C)(C)C)c1OC" is 42.6

Record "Cc1ccc2c(c1)nc(-c1ccccc1)n2CC(=O)N=Nc1c(O)[nH]c2ccc(Br)cc12" . Reported growth: -10

# growth (compound: COC(=O)/C=C/c1cccc2c1C(=O)NC(C)(c1cc3cc4ccccc4cc3oc1=O)N2 (stereo unspecified) ) is 99.7

response.value for CC1(C)CC[C@]2(C(=O)O)CC[C@]3(C)C(=CCC4[C@@]5(C)C[C@@H](O)[C@@H]6OC(c7ccco7)OC[C@@]6(C)C5CC[C@]43C)C2C1 (stereo partly specified) (field: growth) = 29.2

Entry C#CCOc1cc(N(CC)CC)ccc1C(C(=O)NC(C)(C)C)N(C(=O)C1CCc2cc(F)ccc2O1)c1ccccc1F (stereo unspecified) , growth reported as 45

Input "O=C(c1ccccc1)C(c1c[nH]c2ccccc12)c1c[nH]c2ccccc12" . Output growth: 142

----------
Tested on: DU-145 prostate
Assay: NCI-60 one-dose screen, 48 h (100 = growth as untreated, 0 = no growth, -100 = all killed)
Settings: 10 µM unless noted
About 83,000 compounds went through this panel and 20% of them were active in at least one assay; those are over-represented in the sample as a whole.
QUANTITY: growth (%)
Dear colleague, please return just the value in %, with no unit written.

Example results:
• COc1ccc(-c2ccnc(SCc3cc4ccccc4[nH]c3=O)n2)cc1OC = 36.4
• O=C(N/N=C/c1ccc(-c2ccc(O)cc2)s1)c1[nH]c2ccc(Br)cc2c1-c1ccccc1 = 30.1
• N#Cc1cnn(C(=O)c2ccccc2Br)c1NC(=O)c1ccc(Br)cc1Cl = 108
• C=C1CC[C@@H]2[C@]3(C)COC(c4cn[nH]c4-c4ccc(OC)cc4)O[C@@H]3CC[C@@]2(C)[C@@H]1C/C=C1/C(=O)OCC1O (stereo partly drawn) = -27.2
• Cc1cc(C)cc(NC(=O)Cn2cc(COn3nnc4ccccc43)nn2)c1 = 111

Just so you know, measured growth for "CCCCSc1nc(Nc2ccc(C(C)=O)cc2)c(C#N)c(-c2ccc(OC)cc2)n1" came out at 88.5

----------
System: OVCAR-5 ovarian
Test: NCI-60 one-dose screen, 48 h (100 = growth as untreated, 0 = no growth, -100 = all killed)
Conditions: 10 µM unless noted
About 83,000 compounds went through this panel and 20% of them were active in at least one assay; those are over-represented in the sample as a whole. The source made the active and inactive calls. How the source made its calls: active means growth percent below 10; inactive means the rest.
QUANTITY: growth

Reported growth for "CCOc1ccc(C(=O)NC(=S)Nc2ccc(S(N)(=O)=O)cc2)cc1" was 103% [100 µM] (inactive)

----------
Attribute: growth
System: EKVX NSCLC
Assay: NCI-60 one-dose screen, 48 h (100 = growth as untreated, 0 = no growth, -100 = all killed)
Details: 10 µM unless noted
The panel holds about 83,000 compounds, 20% with a hit somewhere; the sample as a whole holds those more often.
# number only, unit % dropped from output

* COc1ccc(-c2cc(C(=O)NCc3ccccc3)nn2-c2ccc(S(C)(=O)=O)cc2)cc1OC | 97.5
* Clc1cccc(N/N=C/c2c[nH]c3ccc(Br)cc23)n1 | 33.9
* O=C(CN1C(=O)/C(=C/c2ccccc2F)SC1=S)N1CCOCC1 | 95.9
* N#Cc1c(-c2ccc(Br)cc2)nc2n[nH]c(-c3ccc(Br)cc3)c2c1-c1ccc(C(F)(F)F)cc1 | 5.95
* COc1ccc2nc(Nc3cccc(NC(=O)c4ccc(CN5CCCN(C)CC5)c(C(F)(F)F)c4)c3)ccc2c1 | -98.5

Entry "COc1ccc2c(c1)c(/C=N/Nc1ccc3ccccc3n1)cn2C" , growth reported as 53.1

"COc1ccc(C(=O)/C=C/c2ccc(OCc3ccccc3)c(OC)c2)cc1OC" yielded growth of 80.4

The compound listed as C=C1CC[C@@H]2[C@]3(C)COC(c4ccco4)O[C@@H]3CC[C@@]2(C)[C@@H]1C/C=C1/C(=O)OCC1OC(C)=O (stereo not given in full) has a reported growth of 89.3

growth measured on "CCCCSc1nc(NCCc2c[nH]c3ccccc23)c(C#N)c(-c2ccc(OC)cc2)n1" = 40.1

The recorded growth for "C#CCOc1ccc(/C=N/Nc2nc(-c3ccc(Cl)cc3)cs2)cc1OC" is 59.5

----------
Tested on: NCI-H23 lung
Test: NCI-60 one-dose screen, 48 h
Conditions: 10 µM unless noted
Experimental: Growth inhibition of the NCI-H23 human Non-Small Cell Lung tumor cell line is measured as a screen for anti-cancer activity. Cells are grown in 96 well plates and exposed to the test compound for 48 hours. Compounds are tested at a single concentration, which is 10^-5 M for most compounds. The reported endpoint is percent growth (GI% or GIPRCNT), where numbers from 0 - 100% represent growth inhibition, and numbers from -100% - 0 represent cell death. […]
This is part of a sample that, as a whole, favours compounds with a hit. Of some 83,000 tested, about 20% had one in any assay. Calls of active or inactive are those of the source. Rule for the calls: active = growth percent below 10; inactive = the rest.
Pick from Yes = active, No = inactive when you respond.

* COc1cc2oc(-c3cccc(NC(=O)[C@H](Cc4ccccc4)NC(=O)OC(C)(C)C)c3)cc(=O)c2c(OC)c1OC | No
* NS(=O)(=O)c1ccc(NNC(=O)CCC(=O)c2ccccc2)cc1 | No
* CSc1ccc(NC(=O)c2ccc3nn(/C(C#N)=C/c4ccccn4)nc3c2)cc1 | Yes
* c1ccc(-c2csc(Nc3cccc(Nc4nc(-c5ccccc5)cs4)c3)n2)cc1 | No
* O=C(Cn1c(/C=C/c2ccccc2)nc2ccccc2c1=O)Nc1ccc(Cl)cc1 | No
* C=CC[N+](C)(C)CCn1c2ccccc2c2nc3cc(C)c(C)cc3nc21 | No

Outcome logged for "O=C(/C=C/c1cccc(OCc2ccccc2)c1)c1nc2ccccc2[nH]1" in this assay:
No

Outcome? "O=C(COc1ccc(NC(=O)Nc2ccc(Cl)c(Cl)c2)cc1)N=Nc1c(O)[nH]c2ccc([N+](=O)[O-])cc12"
No

Record request — test call for "O=C(O)c1cccc(-c2ccc(/C=N/NC(=O)c3[nH]c4ccc(Br)cc4c3-c3ccccc3)s2)c1"
No

Could you check what this test reported for "CCCCSc1nc(Nc2ccc(S(N)(=O)=O)cc2)c(C#N)c(-c2cc(OC)c(OC)c(OC)c2)n1" ?
No

Tell me the recorded outcome of this test for "Cc1cc2nc3c([nH]c2cc1C)c1ccc(=O)cc1n3CCN(C)C" .
No

Can you look up the reported call for "O=c1[nH]c2ccc(Cl)cc2cc1CSc1nccc(-c2ccc(Cl)cc2)n1" for me?
No

Hi, sorry to bother you, what did the test record for "CN(C)c1nc(NCCNS(=O)(=O)c2ccc(C(=O)/C=C/c3ccc(Cl)cc3)cc2)nc(Nc2ccc(F)cc2)n1" ?
Yes

Name the outcome recorded for "CC(=O)Nc1ccc(-n2cnc3cc(-c4ccc(O)cc4)ccc32)cc1C(F)(F)F" in the assay.
No

Which outcome did this test record for the compound "CC(=O)Nc1cccc(Nc2nccc(N[C@@H](C)c3ccccc3)n2)c1" ?
No

Which outcome was assigned to "O=C(/C=C/Nc1ccc2oc(=O)ccc2c1)c1cc2cc(Br)ccc2oc1=O" in this test?
No

Values were extracted from PubChem BioAssay (NCI).
